# ASSAY_PROCEDURE: in vitro
# CONDITION_SUMMARY: human, Caco-2, Caco-2 permeability P (B-A), basolateral to apical
MEASUREMENT_TYPE: Papp B→A

Inquiry: Tell me the measured Papp B→A of `CO[C@H](c1ccc(OCc2cn(CCCCCn3cc(COc4ccc([C@@H](OC)[C@@H]5NC(=O)[C@H](C)NC(=O)[C@H](C[C@@H](C)CO)N(C)C(=O)[C@H](Cc6cn(C)c7ccccc67)N(C)C(=O)[C@H](C(C)C)NC(=O)[C@H](CC(C)C)N(C)C(=O)[C@H](C(C)C)NC5=O)cc4)nn3)nn2)cc1)[C@@H]1NC(=O)[C@H](C)NC(=O)[C@H](C[C@@H](C)CO)N(C)C(=O)[C@H](Cc2cn(C)c3ccccc23)N(C)C(=O)[C@H](C(C)C)NC(=O)[C@H](CC(C)C)N(C)C(=O)[C@H](C(C)C)NC1=O` , please.
Reply text: < 25 nm/s
